Assay: chemical genetic growth profiling, strain panel (AID 1159580);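 further: tested at 20 µM; growth read once vehicle control cultures reached saturation at 30 °C; 1 = growth at the plate median or of vehicle wells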
Conditions: S. cerevisiae deletion strains, growth OD, locus YOL006C, strain TOP1
Screen size: about 5,500 compounds; about 2,000 (36%) were called active. Another 18% or so got no clear call; they are omitted. No stated cut-off is given here; in the data, active means normalized growth mostly below about 0.91 (no sharp cut-off); inconclusive means no clear call, values can overlap the other calls; inactive means mostly above about 0.92. The list shows a part of the results.
The reply should be one of these categories: active, inactive

# example entries with known answers
>>> assigned_label("COc1cc(OC)c2c(OC)c(-c3ccc4c(c3)OCO4)c(=O)oc2c1")
"inactive"
>>> assigned_label("O=C(Nc1cc(-c2ccccc2)[nH]n1)c1ccccc1")
"active"
>>> assigned_label("O=C(Cc1ccccc1)NC1CCN(S(=O)(=O)c2ccc(Cl)cc2)CC1")
"inactive"
>>> assigned_label("Cc1ccc(S(=O)(=O)N2CCCCCC2)cc1")
"inactive"
>>> assigned_label("O=C1c2ccccc2C(=O)c2ccccc21")
"inactive"
>>> assigned_label("COc1ccc(-c2c(OC)c3c(OC)c4c(cc3oc2=O)OC(C)(C)C=C4)cc1")
"active"

Turning now to a further compound:
Data request: Assay outcome for `CN1CCC[C@H]1c1cccnc1` : what was it?
Data returned: inactive

----------
Assay: chemical genetic growth profiling, strain panel (AID 1159580);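 further: tested at 20 µM; growth read once vehicle control cultures reached saturation at 30 °C; 1 = growth at the plate median or of vehicle wells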
Details: S. cerevisiae deletion strains, growth OD, locus YER110C
Screen size: about 5,500 compounds; about 2,000 (36%) were called active. Another 18% or so got no clear call; they are omitted. Rule as the data show it: active = normalized growth mostly below about 0.91 (no sharp cut-off); inconclusive = no clear call, values can overlap the other calls; inactive = mostly above about 0.92. The list shows a part of the results.
The reply should be one of these categories: active, inactive

# example entries with known answers
>>> assigned_label("O=C1NS(=O)(=O)c2ccccc21")
"inactive"
>>> assigned_label("O=c1c(O)c(-c2ccccc2)oc2cc(O)ccc12")
"inactive"
>>> assigned_label("CC(=O)CCCCn1c(=O)c2c(ncn2C)n(C)c1=O")
"inactive"
>>> assigned_label("COP(=O)(NC(C)=O)SC (stereo not given)")
"inactive"
>>> assigned_label("Cn1c(=O)[nH]c2ncn(C)c2c1=O")
"inactive"

Data request: Assay outcome for C=C(C)C1Cc2c(ccc3c(=O)c4c(oc23)COc2cc(OC)c(OC)cc2-4)O1 (stereo not given) : what was it?
Data returned: inactive

Data request: Assay outcome for O=C(c1ccccc1)c1ccc2n1CCC2C(=O)O (stereo not given) : what was it?
Data returned: inactive

----------
Experiment: chemical genetic growth profiling, strain panel (AID 1159580);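 further: tested at 20 µM; growth read once vehicle control cultures reached saturation at 30 °C; 1 = growth at the plate median or of vehicle wells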
Details: S. cerevisiae deletion strains, growth OD, locus YKL068W, stronger effect = lower value
Screen size: about 5,500 compounds; about 2,000 (36%) were called active. Roughly 18% stayed inconclusive and do not appear here. The list shows a part of the results.
Task for the reader: assign each of the following compounds its reported normalized growth.
One number for each entry.

Reference set (3 entries):
>>> reported_value("CN1CCCCC1c1ccc(-c2cccnc2)nc1 (centres undefined)")
0.997
>>> reported_value("O=C(O)CC[N+](=O)[O-]")
0.978
>>> reported_value("COC(=O)c1cc(OC)c(=O)c2c(OC)c(OC)ccc2c1")
0.999

Next:
Data request: Tell me normalized growth reported for `CC(=O)NS(=O)(=O)c1ccc(N)cc1`
Data returned: 0.989

----------
Task for the reader: assign each of the following molecules its reported normalized growth.
Assay: chemical genetic growth profiling, strain panel (AID 1159580);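 further: tested at 20 µM; growth read once vehicle control cultures reached saturation at 30 °C; 1 = growth at the plate median or of vehicle wells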
Details: S. cerevisiae deletion strains, growth OD, locus YNR049C, strain mso1, stronger effect = lower value
Screen size: about 5,500 compounds; about 2,000 (36%) were called active. Roughly 18% stayed inconclusive and do not appear here. The list shows a part of the results.
Answers are plain numbers.

Reference set (4 entries):
>>> reported_value("CC12CCC(OC(=O)c3ccccc3)CC1CCc1ccccc12 (stereo unspecified)")
0.994
>>> reported_value("C[C@H]1C(=O)CCC2[C@]3(C)CC[C@@]4(C)C5CC(C)(C)CC[C@]5(C)CC[C@]4(C)C3CC[C@@]21C (stereo partly specified)")
0.994
>>> reported_value("CC1CC(OC(=O)c2ccccc2O)CC(C)(C)C1 (stereo unspecified)")
0.982
>>> reported_value("COc1cc(OC)c2c(OC)c(-c3ccc4c(c3)OCO4)c(=O)oc2c1")
0.992

// for each molecule in input: emit normalized growth
1. C=C[C@H]1CN2CC[C@H]1C[C@H]2[C@H](O)c1ccnc2ccccc12
2. CCC1(C2=NCCN2)Cc2ccccc2O1 (stereo unspecified)
3. CON
4. COc1cc([C@@H]2c3cc4c(cc3[C@H](O)[C@H]3COC(=O)[C@H]23)OCO4)cc(OC)c1OC
5. CN1CCC[C@H]1c1cccnc1
6. COc1cc(Cc2cnc(N)nc2N)cc(OC)c1OC
7. O=C(Nc1ccc([N+](=O)[O-])cc1Cl)c1cc(Cl)ccc1O

Data returned:
1. 1
2. 1.01
3. 1
4. 1
5. 1.02
6. 1.01
7. 1
